experiment_summary: Cytotoxicity against human HUVEC cells assessed as cell viability at 9 to 150 uM after 24 hrs by MTT assay relative to control
Assay type: cell-based
conditions: read-out: Activity
viability at 24 h, up to 150 µM overview
attribute_measured: viability at 24 h, up to 150 µM

[
  {
    "compound": "O=[N+]([O-])c1ccc(N2CCC[C@H]2CO)c([N+](=O)[O-])c1",
    "attribute_measured": "viability at 24 h, up to 150 µM",
    "assay_result": "> 80%"
  },
  {
    "compound": "CN(C)C(=O)Oc1cc(N2CCOCC2)c([N+](=O)[O-])cc1[N+](=O)[O-]",
    "attribute_measured": "viability at 24 h, up to 150 µM",
    "assay_result": "51 to 80%"
  },
  {
    "compound": "O=[N+]([O-])c1ccc(N2CCCC(O)C2)c([N+](=O)[O-])c1 (stereo unspecified)",
    "attribute_measured": "viability at 24 h, up to 150 µM",
    "assay_result": "> 80%"
  },
  {
    "compound": "CC(C)CC(=O)Nc1cc(N2CCOCC2)c([N+](=O)[O-])cc1[N+](=O)[O-]",
    "attribute_measured": "viability at 24 h, up to 150 µM",
    "assay_result": "51 to 80%"
  },
  {
    "compound": "Nc1ccccc1Nc1ccc([N+](=O)[O-])cc1[N+](=O)[O-]",
    "attribute_measured": "viability at 24 h, up to 150 µM",
    "assay_result": "> 80%"
  },
  {
    "compound": "O=[N+]([O-])c1cc([N+](=O)[O-])c(Nc2ccc(S(=O)(=O)O)cc2)cc1Nc1ccc(S(=O)(=O)O)cc1",
    "attribute_measured": "viability at 24 h, up to 150 µM",
    "assay_result": "> 80%"
  }
]

* * *

Activity overview
Test system: Hep 3B2
experiment_summary: Cytotoxicity against human Hep3B cells assessed as cell viability at 9 to 150 uM after 24 hrs by MTT assay relative to control
Format: functional
attribute_measured: Activity

[
  {
    "compound": "CCNc1ccc([N+](=O)[O-])cc1[N+](=O)[O-]",
    "assay_result": "51 - 80%"
  },
  {
    "compound": "COCCC(=O)Oc1cc(N2CCOCC2)c([N+](=O)[O-])cc1[N+](=O)[O-]",
    "assay_result": ">80%"
  },
  {
    "compound": "O=[N+]([O-])c1ccc(N2CCOCC2)c([N+](=O)[O-])c1",
    "assay_result": ">80%"
  },
  {
    "compound": "O=[N+]([O-])c1ccc(Nc2ccc3ccccc3c2)c([N+](=O)[O-])c1",
    "assay_result": "51 - 80%"
  },
  {
    "compound": "O=[N+]([O-])c1ccc(N2CCCCC2)c([N+](=O)[O-])c1",
    "assay_result": "51 - 80%"
  },
  {
    "compound": "O=[N+]([O-])c1cc([N+](=O)[O-])c(Nc2ccc(O)cc2)cc1Nc1ccc(O)cc1",
    "assay_result": "51 - 80%"
  },
  {
    "compound": "CC(C)CC(=O)Oc1cc(N2CCOCC2)c([N+](=O)[O-])cc1[N+](=O)[O-]",
    "assay_result": ">80%"
  },
  {
    "compound": "CC(C)Nc1ccc([N+](=O)[O-])cc1[N+](=O)[O-]",
    "assay_result": ">80%"
  },
  {
    "compound": "COc1cccc(Nc2ccc([N+](=O)[O-])cc2[N+](=O)[O-])c1",
    "assay_result": ">80%"
  },
  {
    "compound": "O=[N+]([O-])c1cc([N+](=O)[O-])c(Nc2ccc(Cl)cc2)cc1Nc1ccc(Cl)cc1",
    "assay_result": "51 - 80%"
  },
  {
    "compound": "O=[N+]([O-])c1ccc(N2CCCC(O)C2)c([N+](=O)[O-])c1 (stereo unspecified)",
    "assay_result": ">80%"
  }
]
